Assay: Pharmacokinetic study after oral administration, plasma by UPLC-MS/MS
Assay type: in vivo, C57BL/6J mice
Conditions: C57BL/6J, mouse; oral 10 mg/kg, mice plasma; read-out: t1/2z
ENDPOINT LABEL: half-life (h)
I only need the number, in h, no unit after it.

The compound N#Cc1cn(-c2cc(Cl)c(Oc3cc(C4CCC4)c(=O)[nH]n3)c(Cl)c2)c(=O)[nH]c1=O showed half-life equal to 3.15

----------
Experiment: Pharmacokinetic study after oral administration, plasma by UPLC-MS/MS
Type: in vivo, C57BL/6J mice
Settings: C57BL/6J, mouse; oral 10 mg/kg, mice plasma; read-out: MRT (0-t) (converted)
ENDPOINT LABEL: MRT last (h)
I only need the number, in h, no unit after it.

The molecule N#Cc1cn(-c2cc(Cl)c(Oc3cc(C4CCC4)c(=O)[nH]n3)c(Cl)c2)c(=O)[nH]c1=O showed MRT last equal to 3.42

----------
Test: Pharmacokinetic study after oral administration, plasma by UPLC-MS/MS
Assay type: in vivo, C57BL/6J mice
Conditions: C57BL/6J, mouse; oral 10 mg/kg, mice plasma; read-out: CLz/F
ENDPOINT LABEL: CL/F (mL/min/kg)
I only need the number, in mL/min/kg, no unit after it.

The compound N#Cc1cn(-c2cc(Cl)c(Oc3cc(C4CCC4)c(=O)[nH]n3)c(Cl)c2)c(=O)[nH]c1=O showed CL/F equal to 160

----------
Assay: Pharmacokinetic study after oral administration, plasma by UPLC-MS/MS
Type: in vivo, C57BL/6J mice
Details: C57BL/6J, mouse; oral 10 mg/kg, mice plasma
ENDPOINT LABEL: Tmax (min)
I only need the number, in min, no unit after it.

The molecule N#Cc1cn(-c2cc(Cl)c(Oc3cc(C4CCC4)c(=O)[nH]n3)c(Cl)c2)c(=O)[nH]c1=O showed Tmax equal to 55

----------
Test: Pharmacokinetic study after oral administration, plasma by UPLC-MS/MS
Type: in vivo, C57BL/6J mice
Conditions: C57BL/6J, mouse; oral 10 mg/kg, mice plasma; read-out: MRT (0-∞) (converted)
ENDPOINT LABEL: MRT inf (h)
I only need the number, in h, no unit after it.

The compound N#Cc1cn(-c2cc(Cl)c(Oc3cc(C4CCC4)c(=O)[nH]n3)c(Cl)c2)c(=O)[nH]c1=O showed MRT inf equal to 4.04

----------
Assay: Pharmacokinetic study after oral administration, plasma by UPLC-MS/MS
Assay type: in vivo, C57BL/6J mice
Details: C57BL/6J, mouse; oral 40 mg/kg, mice plasma
ENDPOINT LABEL: Tmax (min)
I only need the number, in min, no unit after it.

The compound N#Cc1cn(-c2cc(Cl)c(Oc3cc(C4CCC4)c(=O)[nH]n3)c(Cl)c2)c(=O)[nH]c1=O showed Tmax equal to 55

----------
Assay: Pharmacokinetic study after oral administration, plasma by UPLC-MS/MS
Format: in vivo, C57BL/6J mice
Settings: C57BL/6J, mouse; oral 20 mg/kg, mice plasma; read-out: MRT (0-t) (converted)
ENDPOINT LABEL: MRT last (h)
I only need the number, in h, no unit after it.

The compound N#Cc1cn(-c2cc(Cl)c(Oc3cc(C4CCC4)c(=O)[nH]n3)c(Cl)c2)c(=O)[nH]c1=O showed MRT last equal to 3.06

# credit: paper PMC9127185
